- measured-on: T1, HaloTag[22-297](M2F)
- T1 construct: also called LgHT (M2F variant); Large HaloTag
- test-protocol: apparent affinity from peptide titration (up to 1 mM) of the large fragment in E. coli lysate, JF646 fluorescence complementation; signal did not saturate
pKd: −log10 of the molar value.
quantity-name: pKd

Please fill in: pKd reported for EIGTGFPFDPHYVEVLG (also called HT(3-19); SmHT) [synthetic HaloTag[3-19] peptide] = < 4.00
